Attribution: patent US8497371B2

Assay system: ATX (Homo sapiens, UniProt Q13822)
Protocol details: biochemical
Measurement context: Ki (μM), FS-3 substrate; for mixed mode Ki=IC50 assumed
The label is Met for Ki below 9 µM and Not met for Ki equal to or exceeding 9 µM.

[
  {
    "Compound": "CCn1cc(C(=O)O)c(=O)c2cnc(N3CCN(C(=S)Nc4cccc(C)c4)CC3)nc21 [Compound 13]",
    "Qualitative label": "Not met"
  },
  {
    "Compound": "CCn1cc(C(=O)O)c(=O)c2cnc(N3CCN(C(=S)Nc4ccc5nsnc5c4)CC3)nc21 [Compound 7]",
    "Qualitative label": "Met"
  },
  {
    "Compound": "CCn1cc(C(=O)O)c(=O)c2cnc(N3CCN(C(=S)Nc4ccc(C(F)(F)F)cc4)CC3)nc21 [Compound 31]",
    "Qualitative label": "Met"
  },
  {
    "Compound": "CCn1cc(C(=O)O)c(=O)c2cnc(N3CCN(C(=S)Nc4ccc(Cl)cc4)CC3)nc21 [Compound 28]",
    "Qualitative label": "Not met"
  }
]

* * *

Assay system: ATX (Homo sapiens)
Protocol details: ATX inhibition assay with FS-3 substrate
Format: biochemical
Set-up: conditioned serum-free medium (CCM) from MDA-MB-435 cells as the source of ATX; endogenous in cells; host or cells: MDA-MB-435 cells (about 10x concentrated serum-free conditioned medium)
Measurement context: Substrate FS-3 (1 μM)
pIC50: −log10 of the molar value.
In this section, each of the compounds is paired with its reported pIC50.

[
  {
    "Molecule": "CCn1cc(C(=O)O)c(=O)c2cnc(N3CCN(C(=S)Nc4ccc(C(F)(F)F)cc4)CC3)nc21",
    "pIC50": 5.82
  },
  {
    "Molecule": "CCn1cc(C(=O)O)c(=O)c2cnc(N3CCN(C(=S)Nc4cccc(C(F)(F)F)c4)CC3)nc21",
    "pIC50": 6.05
  },
  {
    "Molecule": "CCn1cc(C(=O)O)c(=O)c2cnc(N3CCN(C(=S)Nc4ccc5nsnc5c4)CC3)nc21",
    "pIC50": 4.92
  },
  {
    "Molecule": "CCn1cc(C(=O)O)c(=O)c2cnc(N3CCN(C(=S)Nc4cc(C(F)(F)F)cc(C(F)(F)F)c4)CC3)nc21",
    "pIC50": 5.36
  }
]

* * *

Assay system: ATX (Homo sapiens)
Protocol details: ATX inhibition assay with FS-3 substrate
Format: biochemical
Design: conditioned serum-free medium (CCM) from MDA-MB-435 cells as the source of ATX; endogenous in cells; host or cells: MDA-MB-435 cells (about 10x concentrated serum-free conditioned medium)
Measurement context: ATX-mediated FS-3 hydrolysis

[
  {
    "Molecule": "CCn1cc(C(=O)O)c(=O)c2cnc(N3CCN(C(=S)Nc4cc(Cl)cc(Cl)c4)CC3)nc21",
    "IC50 [µM]": 1.6
  }
]

* * *

Assay system: ATX (Homo sapiens, UniProt Q13822)
Protocol details: ATX inhibition assay with FS-3 substrate
Format: biochemical
Set-up: conditioned serum-free medium (CCM) from MDA-MB-435 cells as the source of ATX; endogenous in cells; host or cells: MDA-MB-435 cells (about 10x concentrated serum-free conditioned medium)
Measurement context: Table 2; same values as % Response at 10 μM
Each entry below lists one item and its recorded single dose response comparison by aromatic substituent and position value.
Quantity: single dose response comparison by aromatic substituent and position

[
  {
    "Molecule": "CCn1cc(C(=O)O)c(=O)c2cnc(N3CCN(C(=S)Nc4ccc(C(F)(F)F)cc4)CC3)nc21",
    "Recorded result": 36.2
  },
  {
    "Molecule": "CCn1cc(C(=O)O)c(=O)c2cnc(N3CCN(C(=S)Nc4cccc(C(F)(F)F)c4)CC3)nc21",
    "Recorded result": 0.3
  },
  {
    "Molecule": "CCn1cc(C(=O)O)c(=O)c2cnc(N3CCN(C(=S)Nc4ccc(F)cc4)CC3)nc21",
    "Recorded result": 48.9
  },
  {
    "Molecule": "CCn1cc(C(=O)O)c(=O)c2cnc(N3CCN(C(=S)Nc4cccc(F)c4)CC3)nc21",
    "Recorded result": 40.5
  }
]

* * *

Assay system: ATX (Homo sapiens, UniProt Q13822)

[
  {
    "Molecule": "CCn1cc(C(=O)O)c(=O)c2cnc(N3CCN(C(=S)Nc4ccc5nsnc5c4)CC3)nc21",
    "mechanism of ATX inhibition": "competitive"
  },
  {
    "Molecule": "CCn1cc(C(=O)O)c(=O)c2cnc(N3CCN(C(=S)Nc4cc(Cl)cc(Cl)c4)CC3)nc21",
    "mechanism of ATX inhibition": "mixed-mode"
  },
  {
    "Molecule": "CCn1cc(C(=O)O)c(=O)c2cnc(N3CCN(C(=S)Nc4ccc(I)cc4)CC3)nc21",
    "mechanism of ATX inhibition": "mixed-mode"
  },
  {
    "Molecule": "CCn1cc(C(=O)O)c(=O)c2cnc(N3CCN(C(=S)Nc4cccc(C)c4)CC3)nc21",
    "mechanism of ATX inhibition": "mixed-mode"
  },
  {
    "Molecule": "CCn1cc(C(=O)O)c(=O)c2cnc(N3CCN(C(=S)Nc4cccc(Cl)c4)CC3)nc21",
    "mechanism of ATX inhibition": "mixed-mode"
  },
  {
    "Molecule": "CCn1cc(C(=O)O)c(=O)c2cnc(N3CCN(C(=S)Nc4cc(C(F)(F)F)cc(C(F)(F)F)c4)CC3)nc21",
    "mechanism of ATX inhibition": "competitive"
  }
]

* * *

Let's go through some recorded mechanism of ATX inhibition values for ATX (Homo sapiens, UniProt Q13822) together.
Quantity: mechanism of ATX inhibition

[
  {
    "Molecule": "CCn1cc(C(=O)O)c(=O)c2cnc(N3CCN(C(=S)Nc4cc(C)cc(C)c4)CC3)nc21",
    "Recorded result": "mixed-mode"
  },
  {
    "Molecule": "CCn1cc(C(=O)O)c(=O)c2cnc(N3CCN(C(=S)Nc4ccc(Cl)cc4)CC3)nc21",
    "Recorded result": "mixed-mode"
  }
]

* * *

Assay system: UniProt Q13822
Protocol details: ATX inhibition assay with FS-3 substrate
Format: biochemical
Parameters: conditioned serum-free medium (CCM) from MDA-MB-435 cells as the source of ATX; endogenous in cells; host or cells: MDA-MB-435 cells (about 10x concentrated serum-free conditioned medium)
Measurement context: 10 μM compound; FS-3 hydrolysis normalized to vehicle control (low = strong inhibition); mean ± S.D.
Classes by % Response at 10 μM (FS-3): low (below 50%), medium (50% to below 70%), high (70% or more)

[
  {
    "Molecule": "CCn1cc(C(=O)O)c(=O)c2cnc(N3CCN(C(=S)Nc4ccc(C(=O)O)cc4)CC3)nc21",
    "Assay system": "UniProt Q13822",
    "Qualitative label": "high"
  },
  {
    "Molecule": "CCn1cc(C(=O)O)c(=O)c2cnc(N3CCN(C(=S)Nc4cc(C(F)(F)F)cc(C(F)(F)F)c4)CC3)nc21",
    "Assay system": "UniProt Q13822",
    "Qualitative label": "low"
  },
  {
    "Molecule": "CCn1cc(C(=O)O)c(=O)c2cnc(N3CCN(C(=S)Nc4cccc(F)c4)CC3)nc21",
    "Assay system": "UniProt Q13822",
    "Qualitative label": "low"
  },
  {
    "Molecule": "CCn1cc(C(=O)O)c(=O)c2cnc(N3CCN(C(=S)Nc4cccc(C)c4)CC3)nc21",
    "Assay system": "UniProt Q13822",
    "Qualitative label": "low"
  },
  {
    "Molecule": "CCn1cc(C(=O)O)c(=O)c2cnc(N3CCN(C(=S)Nc4ccc(S(=O)(=O)N5CCOCC5)cc4)CC3)nc21",
    "Assay system": "UniProt Q13822",
    "Qualitative label": "medium"
  },
  {
    "Molecule": "CCn1cc(C(=O)O)c(=O)c2cnc(N3CCN(C(=S)Nc4ccccc4F)CC3)nc21",
    "Assay system": "UniProt Q13822",
    "Qualitative label": "high"
  },
  {
    "Molecule": "CCn1cc(C(=O)O)c(=O)c2cnc(N3CCN(C(=S)Nc4c(C)cc(C)cc4C)CC3)nc21",
    "Assay system": "UniProt Q13822",
    "Qualitative label": "medium"
  },
  {
    "Molecule": "CCn1cc(C(=O)O)c(=O)c2cnc(N3CCN(C(=S)Nc4ccccc4Cl)CC3)nc21",
    "Assay system": "UniProt Q13822",
    "Qualitative label": "high"
  },
  {
    "Molecule": "CCn1cc(C(=O)O)c(=O)c2cnc(N3CCN(C(=S)Nc4cc(Cl)cc(Cl)c4)CC3)nc21",
    "Assay system": "UniProt Q13822",
    "Qualitative label": "low"
  },
  {
    "Molecule": "CCn1cc(C(=O)Oc2ccccc2)c(=O)c2cnc(N3CCN(C(=S)Nc4ccccc4)CC3)nc21",
    "Assay system": "UniProt Q13822",
    "Qualitative label": "medium"
  }
]
